Target: T1, hAMY3R (human, UniProt P30988)
T1 sequence 1: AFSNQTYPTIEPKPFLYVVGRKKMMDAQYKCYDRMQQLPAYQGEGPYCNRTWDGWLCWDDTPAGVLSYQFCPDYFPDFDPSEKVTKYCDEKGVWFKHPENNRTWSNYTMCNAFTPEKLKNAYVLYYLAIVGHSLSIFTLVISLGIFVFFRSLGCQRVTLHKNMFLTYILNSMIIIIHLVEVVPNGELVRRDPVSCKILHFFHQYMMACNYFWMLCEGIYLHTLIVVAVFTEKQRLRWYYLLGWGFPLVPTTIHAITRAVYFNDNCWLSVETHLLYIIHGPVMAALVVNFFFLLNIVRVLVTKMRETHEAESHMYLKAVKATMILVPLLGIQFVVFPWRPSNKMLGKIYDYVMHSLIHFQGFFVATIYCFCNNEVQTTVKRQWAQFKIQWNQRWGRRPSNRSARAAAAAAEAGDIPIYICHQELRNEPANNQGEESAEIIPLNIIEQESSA
T1 sequence 2: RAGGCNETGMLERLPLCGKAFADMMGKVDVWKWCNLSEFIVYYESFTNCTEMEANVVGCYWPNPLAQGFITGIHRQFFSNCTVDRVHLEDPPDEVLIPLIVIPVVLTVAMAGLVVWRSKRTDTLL
Assay: cell-based or functional assay
Numbered stars: 1 amine (or outer) side, 2 acyl side, 3 side chain; on linkers, the order of the positions; unused ones are H or OH. Bridge positions count the residues as written; N and C are the ends. Square brackets hold non-standard residues; d marks the D form. Ends that are not written are not given here. * marks the point of attachment. C20 diacid = O=C(O)CCCCCCCCCCCCCCCCCCC(=O)*; γGlu = O=C(O)[C@H](CCC(=O)[*:2])N[*:1]; Hyp = O=C(O)[C@@H]1C[C@@H](O)CN1; Cit = NC(=O)NCCC[C@H](N)C(=O)O
Define the label as 1 when hAMY3R EC50 (cAMP) is strictly less than 0.02 nM and as -1 in all remaining cases.

### Prompt Does this binder meet the criterion hAMY3R EC50 (cAMP) < 0.02 nM? GCRFGTCTVQRLAHQIYQFTDKDKDNVAPSSKISPQT[Hyp]-NH2 (disulfide 2-7 (inferred); ends not checked) [SEQ ID NO: 240]
### Response -1

### Prompt Also, GCRTGTCTVQWLAHQIYQFTDKDKDNVAPRSKIGPNG[Hyp]-NH2 (disulfide 2-7 (inferred); ends not checked) [SEQ ID NO: 355] please.
### Response -1

### Prompt Also, KCNTATCTVQRLAHQIYQFTDKDKDNVAPTNVGSNG[Hyp]-NH2 (disulfide 2-7 (inferred); ends not checked) [SEQ ID NO: 31] please.
### Response 1

### Prompt Also, {C20 diacid-γGlu}-KCNTATCTVQRLANQIYQFTDKDKDNVAPPTNVGSNG[Hyp]-NH2 (disulfide 2-7 (inferred); ends not checked) [SEQ ID NO: 21] please.
### Response 1

### Prompt Also, {C20 diacid-γGlu}-KCNTATCTVQRLAHQIAQFTNKDKDNVAPPTNVGSNG[Hyp]-NH2 (disulfide 2-7 (inferred); not fully specified; ends not checked) [SEQ ID NO: 95] please.
### Response 1

### Prompt Also, GCRFGTCTVQRLAHQIYQFTDKDKDNVAPRTKISPQGY [SEQ ID NO: 164] please.
### Response -1

### Prompt Also, GCRFGTCTVQ[Cit]LAHQIYQFTDKDKDNVAPRTNVSPQGY-NH2 (disulfide 2-7 (inferred); ends not checked) [SEQ ID NO: 278] please.
### Response 1

### Prompt Also, GCRFGTCTVQ[Cit]LAHQIYQFTDKDKDNVAPRSNVSPQGY-NH2 (disulfide 2-7 (inferred); ends not checked) [SEQ ID NO: 286] please.
### Response -1

### Prompt Also, GCRFGTCTVQRLAHQIYQFTDKDKDNVAPRTKVSPQGY [SEQ ID NO: 155] please.
### Response -1
